- Tested on: barnyardgrass (Echinochloa crus-galli)
- assay-text: Test B flooded paddy test barnyardgrass
- Type: in vivo
- reported-conditions: Table B, Flood, 500 g ai/ha, scale 0 to 100
Could you please report measured Plant response rating for the items listed next?
Answers are plain numbers.

Reference set, count: 6
O=C1NCCC(c2cccc(C(F)(F)F)c2)C1C(=O)Nc1cccc(Cl)c1Cl (racemic) [Compound 31]    95
O=C1NCCC(c2ccc(C(F)(F)F)cc2)C1C(=O)Nc1cccc(F)c1Cl (racemic) [Compound 15]    40
O=C1NCCC(c2cccc(Cl)c2)C1C(=O)Nc1ccccc1C(F)(F)F (racemic) [Compound 33]    20
Cc1c(F)cccc1NC(=O)C1C(=O)NCCC1c1cccc(C(F)(F)F)c1 (racemic) [Compound 26]    40
O=C1NCCC(c2cccc(C(F)(F)F)c2)C1C(=O)Nc1cccc(Cl)c1F (racemic) [Compound 16]    0
O=C1NCCC(c2cccc(C(F)(F)F)c2)C1C(=O)Nc1cccc(F)c1Cl (racemic) [Compound 19]    60

Respectfully, I request Plant response rating for each entry included below.
1. O=C1NCCC(c2cccc(OC(F)F)c2)C1C(=O)Nc1ccc(F)c(F)c1F (racemic) [Compound 44]
2. O=C1NCCC(c2cccc(Cl)c2)C1C(=O)Nc1ccccc1F (racemic) [Compound 34]

Response given:
1: 60; 2: 0
